# pIC50 per entry
- Test system: panel of hematologic and solid cancer lines
- ASSAY PROTOCOL: 6-day in vitro growth/death assay
- Type: cell-based, human
- RUN PARAMETERS: Homo sapiens, RL; read-out: gIC50
Give only the number. pIC50 is defined as minus log10 of concentration in molar units.

MOL | pIC50
CC(=O)N1CCC(Nc2cc(C(=O)NC[C@H](O)CN3CCc4ccccc4C3)ncn2)CC1 | 7.93

Enquiry: Enter measured pIC50, system panel of hematologic and solid cancer lines, for the compound shown: `O=C(NC[C@H](O)CN1CCc2ccccc2C1)c1ccnc(NC2CCC2)c1`
Return: 5.84

====

- System: panel of hematologic and solid cancer lines
- ASSAY PROTOCOL: 6-day in vitro growth/death assay
- Assay type: cell-based, human
- RUN PARAMETERS: MINO; read-out: gIC50
MEASUREMENT NAME: IC50
I'd appreciate it if you included the unit after the number.

Enquiry: Provide IC50 value for the following compound: `O=C(NC[C@H](O)CN1CCc2ccccc2C1)c1ccnc(NC2CCC2)c1`
Return: 0.536 µM

Reference source for all entries: paper PMC6018746
